# measurement-target: Protein phosphatase 1D (Homo sapiens) (UniProt O15297)
# Sequence (O15297 whole entry, looked up): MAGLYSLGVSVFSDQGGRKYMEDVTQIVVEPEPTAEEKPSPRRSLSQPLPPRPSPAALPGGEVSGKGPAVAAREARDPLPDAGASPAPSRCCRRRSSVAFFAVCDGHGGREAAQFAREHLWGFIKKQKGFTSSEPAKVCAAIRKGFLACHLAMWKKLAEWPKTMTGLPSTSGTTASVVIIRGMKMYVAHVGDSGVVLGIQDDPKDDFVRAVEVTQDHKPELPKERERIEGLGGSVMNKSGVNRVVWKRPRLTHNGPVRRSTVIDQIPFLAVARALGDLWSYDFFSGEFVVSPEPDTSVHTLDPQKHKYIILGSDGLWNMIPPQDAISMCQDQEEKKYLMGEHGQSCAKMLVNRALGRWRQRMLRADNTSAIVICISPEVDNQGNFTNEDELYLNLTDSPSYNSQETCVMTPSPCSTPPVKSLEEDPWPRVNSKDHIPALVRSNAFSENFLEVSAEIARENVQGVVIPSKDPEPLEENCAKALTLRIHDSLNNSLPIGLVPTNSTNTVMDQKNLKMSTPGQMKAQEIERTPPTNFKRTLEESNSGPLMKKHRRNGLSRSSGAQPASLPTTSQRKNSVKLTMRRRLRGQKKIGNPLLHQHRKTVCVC
# measurement-notes: RapidFire Mass Spectrometry qHTS Assay for Modulators of WT P53-Induced Phosphatase 1 (WIP1) (AID 1347424);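 also: amount of dephosphorylated VEPPL-S-QETFS peptide product formed by WIP1; plate controls were DMSO wells for no effect and GSK830371 inhibitor control at 10 µM for full effect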
# experimental-conditions: WIP1 dephosphorylation of phosphopeptide, RapidFire MS; series mostly up to 63 µM
# Text: Assay Provider (PI): Nathan Coussens Ph. D. National Center for Advancing Translational Sciences (NCATS), Rockville, MD National Institute of Health (NIH), Bethesda, Maryland […] Here, we describe two orthogonal biochemical WIP1 activity assays that utilize phosphopeptides from native WIP1 substrates. We optimized a RapidFire MS assay to quantify the enzymatically dephosphorylated peptide reaction product in a 384-well format. […]
Records with an inconclusive call do not appear. Active and inactive are the calls of the source. Calls follow the shape of the dose curve; as a rule, active = well fitted inhibition curve with a large enough effect; inconclusive = small, poorly fitted or top-dose-only effect; inactive = no such curve, though single readings can be large or run the other way.
test-readout: activity change, negative = inhibition

Record excerpt, results attached:
1) Cc1c(C)c2c(c(C)c1OC(=O)c1cccnc1)CC[C@@](C)(CCC[C@H](C)CCC[C@H](C)CCCC(C)C)O2 ... inactive
2) O=C(O)c1ccccc1OP(=O)(O)O ... inactive
3) O=C(CCBr)N1CCN(C(=O)CCBr)CC1 ... inactive
4) CC1CCc2cc(F)cc3c(=O)c(C(=O)O)cn1c23 (centres undefined) ... inactive
5) Cc1ccc(S(=O)(=O)NC(=O)NC2CCCCC2)cc1 ... inactive

O=C(O)C(S)C(S)C(=O)O (centres undefined) has a reported activity change, negative = inhibition of inactive

C=CCN1C[C@H](C(=O)N(CCCN(C)C)C(=O)NCC)C[C@@H]2c3cccc4[nH]cc(c34)C[C@H]21 has a reported activity change, negative = inhibition of inactive

Cc1cccc(C)c1NC(=O)CC12CCCN1CCC2 has a reported activity change, negative = inhibition of inactive

CCCCCCCCCCCCCCCCN has a reported activity change, negative = inhibition of inactive

* * *

# System: NIH3T3
# measurement-notes: Cytotoxic Profiling of Annotated Libraries Using Quantitative High-Throughput Screening (AID 1296008); also: % is scaled to controls: 0 for no effect and ±100 for the full control effect; nearly all actives have a fitted effect of over 60% in size
# experimental-conditions: Five cell lines viability, CellTiter-Glo ATP luminescence, 48-72 h; active compounds read low
Records with an inconclusive call do not appear. Activity calls are given as the source filed them. Calls follow the shape of the dose curve; as a rule, active = well fitted inhibition curve with a large enough effect; inconclusive = small, poorly fitted or top-dose-only effect; inactive = flat fitted curve, though single readings scatter.
Recorded max response, one value per entry.

Record excerpt, results attached:
1) CC(CSC(=O)c1ccccc1)C(=O)N1C[C@@H](Sc2ccccc2)C[C@H]1C(=O)O (stereo not given in full) ... -0.681% (inactive)
2) O=C(O)COC(=O)Cc1ccccc1Nc1c(Cl)cccc1Cl ... 1.68% (inactive)
3) C=CCNC(N)=S ... 4.81% (inactive)
4) Cc1[nH]c(C)c(Cl)c(=O)c1Cl ... -10.7% (inactive)
5) C[C@@H](c1ncncc1F)C(O)(Cn1cncn1)c1ccc(F)cc1F (stereo not given in full) ... -3.08% (inactive)
6) CCCCCOC(=O)Nc1nc(=O)n([C@@H]2O[C@H](C)[C@@H](O)[C@H]2O)cc1F ... 3.66% (inactive)
7) CC(C)(C)NCC(O)COc1cccc2c1CCC(=O)N2 (stereo not given) ... 3.67% (inactive)
8) C[N+](C)(C)CC[N+]1(C)Cc2c(Cl)c(Cl)c(Cl)c(Cl)c2C1 ... 3.9% (inactive)

Now let's try a different one.
Item: Nc1c2c(nc3c1CCC3)CCCC2 | System: NIH3T3 | max response: 0.339% (inactive)
